Source: patent US20230265151A1

molecular target: human glucagon-like peptide-1 (GLP-1) receptor (human) (UniProt P43220); experiment: cell-based or functional assay
cAMP EC50 values, listed per item

- Binder: "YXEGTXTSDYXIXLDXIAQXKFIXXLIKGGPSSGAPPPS (Y-Aib-EGT-αMeF(2F)-TSDY-Aib-I-αMeL-LD-Orn-IAQ-Aib-K((2-[2-(2-Amino-ethoxy)-ethoxy]-acetyl)2-(γ-Glu)-CO-(CH2)12-CO2H)Fl-(D-Glu)-αMeY-LIK((2-[2-(2-Amino-ethoxy)-ethoxy]-acetyl)2-(γ-Glu)-CO-(CH2)12-CO2H)GGPSSGAPPPS-NH2) [Example 234]"
  cAMP EC50: "0.319 nM"
- Binder: "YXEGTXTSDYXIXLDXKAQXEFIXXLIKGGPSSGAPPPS (Y-Aib-EGT-αMeF(2F)-TSDY-Aib-I-αMeL-LD-Orn-K((2-[2-(2-Amino-ethoxy)-ethoxy]-acetyl)2-(γ-Glu)-CO-(CH2)12-CO2H)AQ-Aib-EFI-(D-Glu)-αMeY-LIK((2-[2-(2-Amino-ethoxy)-ethoxy]-acetyl)2-(γ-Glu)-CO-(CH2)12-CO2H)GGPSSGAPPPS-NH2) [Example 231]"
  cAMP EC50: "1.22 nM"
- Binder: "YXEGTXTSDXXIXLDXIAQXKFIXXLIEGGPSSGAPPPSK (Y-Aib-EGT-αMeF(2F)-TSD-4Pal-Aib-I-αMeL-LD-Orn-IAQ-Aib-K(2-[2-(2-Amino-ethoxy)-ethoxy]-acetyl)2-(γ-Glu)-(11-(4-carboxyphenoxy)undecanoyl)FI-(D-Glu)-αMeY-LIEGGPSSGAPPPSK((2-[2-(2-Amino-ethoxy)-ethoxy]-acetyl)2-(γ-Glu)-(11-(4-carboxyphenoxy)undecanoyl)-NH2)) [Example 242]"
  cAMP EC50: "0.584 nM"
- Binder: "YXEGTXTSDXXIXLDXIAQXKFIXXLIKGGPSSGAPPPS (Y-Aib-EGT-αMeF(2F)-TSD-4Pal-Aib-I-αMeL-LD-Orn-IAQ-Aib-K((2-[2-(2-Amino-ethoxy)-ethoxy]-acetyl)2-(γ-Glu)-(10-(4-carboxyphenoxy)decanoyl))FI-(D-Glu)-αMeY-LIK((2-[2-(2-Amino-ethoxy)-ethoxy]-acetyl)2-(γ-Glu)-(10-(4-carboxyphenoxy)decanoyl))GGPSSGAPPPS-NH2) [Example 247]"
  cAMP EC50: "1 nM"
- Binder: "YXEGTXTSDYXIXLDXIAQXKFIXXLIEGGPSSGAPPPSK (Y-Aib-EGT-aMeF(2F)-TSDY-Aib-I-aMeL-LD-Orn-IAQ-Aib-K((2-[2-(2-Amino-ethoxy)-ethoxy]-acetyl)2-(γ-Glu)-CO-(CH2)12-CO2H)FI-(D-Glu)-αMeY-LIEGGPSSGAPPPSK((2-[2-(2-Amino-ethoxy)-ethoxy]-acetyl)2-(γ-Glu)-CO-(CH2)12-CO2H)-NH2) [Example 235]"
  cAMP EC50: "0.295 nM"
- Binder: "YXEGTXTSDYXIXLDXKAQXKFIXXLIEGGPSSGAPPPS (Y-Aib-EGT-αMeF(2F)-TSDY-Aib-I-αMeL-LD-Orn-K((2-[2-(2-Amino-ethoxy)-ethoxy]-acetyl)2-(γ-Glu)-(10-(4-carboxyphenoxy)decanoyl))AQ-Aib-K((2-[2-(2-Amino-ethoxy)-ethoxy]-acetyl)2-(γ-Glu)-(10-(4-carboxyphenoxy)decanoyl))FI-(D-Glu)-αMeY-LIEGGPSSGAPPPS-NH2) [Example 236]"
  cAMP EC50: "0.336 nM"
- Binder: "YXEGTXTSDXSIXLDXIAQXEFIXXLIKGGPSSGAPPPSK (Y-Aib-EGT-αMeF(2F)-TSD-4Pal-SI-αMeL-LD-Orn-IAQ-Aib-EFI-(D-Glu)-αMeY-LIK((2-[2-(2-Amino-ethoxy)-ethoxy]-acetyl)2-CO-(CH2)12-CO2H)GGPSSGAPPPSK((2-[2-(2-Amino-ethoxy)-ethoxy]-acetyl)2-CO-(CH2)12-CO2H)-NH2) [Example 223]"
  cAMP EC50: "1.43 nM"
- Binder: "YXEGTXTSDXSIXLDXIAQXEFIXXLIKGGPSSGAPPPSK (Y-Aib-EGT-αMeF(2F)-TSD-4Pal-SI-αMeL-LD-Orn-IAQ-Aib-EFI-(D-Glu)-αMeY-LIK((2-[2-(2-Amino-ethoxy)-ethoxy]-acetyl)3-(γ-Glu)-CO-(CH2)12-CO2H)GGPSSGAPPPSK((2-[2-(2-Amino-ethoxy)-ethoxy]-acetyl)3-(γ-Glu)-CO-(CH2)12-CO2H)-NH2) [Example 229]"
  cAMP EC50: "2.25 nM"
- Binder: "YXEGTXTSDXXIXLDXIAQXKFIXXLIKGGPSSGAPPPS (Y-Aib-EGT-αMeF(2F)-TSD-4Pal-Aib-I-αMeL-LD-Orn-IAQ-Aib-K((2-[2-(2-Amino-ethoxy)-ethoxy]-acetyl)2-(γ-Glu)-CO-(CH2)12-CO2H)FI-(D-Glu)-αMeY-LIK((2-[2-(2-Amino-ethoxy)-ethoxy]-acetyl)2-(γ-Glu)-CO-(CH2)12-CO2H)GGPSSGAPPPS-NH2) [Example 220]"
  cAMP EC50: "0.535 nM"
- Binder: "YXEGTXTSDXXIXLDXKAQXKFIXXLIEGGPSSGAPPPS (Y-Aib-EGT-αMeF(2F)-TSD-4Pal-Aib-I-αMeL-LD-Orn-K((2-[2-(2-Amino-ethoxy)-ethoxy]-acetyl)2-(γ-Glu)-(10-(4-carboxyphenoxy)decanoyl))AQ-Aib-K((2-[2-(2-Amino-ethoxy)-ethoxy]-acetyl)2-(γ-Glu)-(10-(4-carboxyphenoxy)decanoyl))FI-(D-Glu)-αMeY-LIEGGPSSGAPPPS-NH2) [Example 243]"
  cAMP EC50: "0.86 nM"
- Binder: "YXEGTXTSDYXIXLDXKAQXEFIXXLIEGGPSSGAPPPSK (Y-Aib-EGT-αMeF(2F)-TSDY-Aib-I-αMeL-LD-Orn-K((2-[2-(2-Amino-ethoxy)-ethoxy]-acetyl)2-(γ-Glu)-(10-(4-carboxyphenoxy)decanoyl))AQ-Aib-EFI-(D-Glu)-αMeY-LIEGGPSSGAPPPSK((2-[2-(2-Amino-ethoxy)-ethoxy]-acetyl)2-(γ-Glu)-(10-(4-carboxyphenoxy)decanoyl))-NH2) [Example 238]"
  cAMP EC50: "1.03 nM"
- Binder: "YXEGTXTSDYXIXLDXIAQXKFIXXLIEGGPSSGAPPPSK (Y-Aib-EGT-αMeF(2F)-TSDY-Aib-I-αMeL-LD-Orn-IAQ-Aib-K((2-[2-(2-Amino-ethoxy)-ethoxy]-acetyl)2-(γ-Glu)-(10-(4-carboxyphenoxy)decanoyl))FI-(D-Glu)-αMeY-LIEGGPSSGAPPPSK((2-[2-(2-Amino-ethoxy)-ethoxy]-acetyl)2-(γ-Glu)-(10-(4-carboxyphenoxy)decanoyl))-NH2) [Example 241]"
  cAMP EC50: "0.362 nM"
- Binder: "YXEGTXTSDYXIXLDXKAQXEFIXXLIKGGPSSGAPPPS (Y-Aib-EGT-αMeF(2F)-TSDY-Aib-I-αMeL-LD-Orn-K((2-[2-(2-Amino-ethoxy)-ethoxy]-acetyl)2-(γ-Glu)-(10-(4-carboxyphenoxy)decanoyl))AQ-Aib-EFI-(D-Glu)-αMeY-LIK((2-[2-(2-Amino-ethoxy)-ethoxy]-acetyl)2-(γ-Glu)-(10-(4-carboxyphenoxy)decanoyl))GGPSSGAPPPS-NH2) [Example 237]"
  cAMP EC50: "0.633 nM"
